Below, each entry is listed with its recorded pIC50.
Target: Serine/threonine-protein kinase B-raf (Homo sapiens, UniProt P15056, V600E)
Sequence (P15056 2-766 V600E limits assumed): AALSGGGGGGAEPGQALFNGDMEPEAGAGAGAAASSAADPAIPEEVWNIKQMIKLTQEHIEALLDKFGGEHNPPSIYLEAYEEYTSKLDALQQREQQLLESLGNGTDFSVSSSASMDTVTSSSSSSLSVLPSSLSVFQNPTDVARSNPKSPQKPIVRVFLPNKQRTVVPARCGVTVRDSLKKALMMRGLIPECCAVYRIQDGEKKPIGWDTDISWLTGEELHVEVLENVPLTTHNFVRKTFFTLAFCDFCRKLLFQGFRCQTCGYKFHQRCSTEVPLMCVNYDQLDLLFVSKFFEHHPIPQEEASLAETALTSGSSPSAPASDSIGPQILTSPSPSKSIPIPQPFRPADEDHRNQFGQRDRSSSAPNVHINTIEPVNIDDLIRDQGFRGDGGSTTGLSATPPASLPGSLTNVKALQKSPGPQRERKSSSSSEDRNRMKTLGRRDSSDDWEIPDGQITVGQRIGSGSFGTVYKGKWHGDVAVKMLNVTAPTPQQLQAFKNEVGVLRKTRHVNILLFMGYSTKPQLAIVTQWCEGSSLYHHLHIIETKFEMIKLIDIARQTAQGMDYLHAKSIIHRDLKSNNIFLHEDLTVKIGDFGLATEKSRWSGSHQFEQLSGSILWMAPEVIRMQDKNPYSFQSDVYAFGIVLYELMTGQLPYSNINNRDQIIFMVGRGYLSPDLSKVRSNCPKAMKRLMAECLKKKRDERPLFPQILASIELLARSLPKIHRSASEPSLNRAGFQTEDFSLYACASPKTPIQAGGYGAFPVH
Experiment: Inhibition of BRAF V600E mutant ERK phosphorylation in human WM266.4 cells
Assay type: cell-based
pIC50: −log10 of the molar value.
reported_metric: pIC50

>  <query_smiles>
Cc1ccc(-n2nc(C(C)(C)C)cc2NC(=O)Nc2ccc(Oc3ccnc4c3[nH]c(=O)n4C)cc2F)cn1

>  <reported_metric>
pIC50

>  <experimental_value>
7.21

$$$$
>  <query_smiles>
CC(C)(C)c1cc(NC(=O)Nc2ccc(Oc3ccnc4[nH]c(=O)[nH]c34)c3ccccc23)n(-c2ccc(F)cc2)n1

>  <reported_metric>
pIC50

>  <experimental_value>
6.69

$$$$
>  <query_smiles>
Cn1c(=O)[nH]c2nccc(Oc3ccc(NC(=O)Nc4cc(C5CC5)nn4-c4ccccc4)cc3)c21

>  <reported_metric>
pIC50

>  <experimental_value>
4.74

$$$$
>  <query_smiles>
CC(C)(C)c1cc(NC(=O)Nc2ccc(Oc3ccnc4[nH]c(=O)[nH]c34)c3ccccc23)n(-c2ccccc2)n1

>  <reported_metric>
pIC50

>  <experimental_value>
7.46

$$$$
>  <query_smiles>
Cn1c(=O)[nH]c2c(Oc3ccc(NC(=O)Nc4cc(C(C)(C)C)nn4-c4ccccc4)c4ccccc34)ccnc21

>  <reported_metric>
pIC50

>  <experimental_value>
7.57

$$$$
>  <query_smiles>
Cc1cc(NC(=O)Nc2ccc(Oc3ccnc4[nH]c(=O)[nH]c34)cc2)n(-c2ccc(Cl)cc2)n1

>  <reported_metric>
pIC50

>  <experimental_value>
4.15

$$$$
>  <query_smiles>
Cc1ccc(-n2nc(C(C)(C)C)cc2NC(=O)Nc2ccc(Oc3ccnc4c3[nH]c(=O)n4C)cc2)cc1

>  <reported_metric>
pIC50

>  <experimental_value>
7.27

$$$$
>  <query_smiles>
Cn1c(=O)[nH]c2nccc(Oc3ccc(NC(=O)Nc4cc(C(C)(C)C)nn4-c4cccnc4)c4ccccc34)c21

>  <reported_metric>
pIC50

>  <experimental_value>
7.00

$$$$
